Recorded % Blocking by entry
STUDY_TARGET: T1, human chemokine (C-C motif) receptor 8 (CCR8) (human, UniProt P51685 1-355)
T1 construct: On human peripheral blood lymphocytes / PBMC (native) or on human CCR8 GFP-transfected Ba/F3 cells; also called hCCR8; human CCR8
T1 sequence (P51685 whole entry): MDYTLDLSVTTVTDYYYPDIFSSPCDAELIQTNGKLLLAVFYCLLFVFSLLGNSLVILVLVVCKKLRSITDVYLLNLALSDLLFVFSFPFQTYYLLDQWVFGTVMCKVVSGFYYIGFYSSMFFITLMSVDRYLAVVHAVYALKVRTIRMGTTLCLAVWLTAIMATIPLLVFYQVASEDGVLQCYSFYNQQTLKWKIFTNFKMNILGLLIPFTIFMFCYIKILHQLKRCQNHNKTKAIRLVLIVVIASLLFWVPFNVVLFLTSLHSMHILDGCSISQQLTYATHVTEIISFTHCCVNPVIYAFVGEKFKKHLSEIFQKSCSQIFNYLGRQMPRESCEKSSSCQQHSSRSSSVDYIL
EXPERIMENTAL_DETAILS: flow cytometry blocking, PBMC CCR8+ CD4+ cells; competitor PE-AB2 (its MFI is read)
Express it in %; write the number only.

What % Blocking value was documented for this binder, AB11 (antibody, V domains shown, Hybridoma monoclonal; also called antibody 11; clone 11) VH: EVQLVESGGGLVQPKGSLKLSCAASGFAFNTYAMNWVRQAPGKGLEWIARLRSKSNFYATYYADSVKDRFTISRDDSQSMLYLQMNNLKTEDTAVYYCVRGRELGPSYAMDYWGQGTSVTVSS VL: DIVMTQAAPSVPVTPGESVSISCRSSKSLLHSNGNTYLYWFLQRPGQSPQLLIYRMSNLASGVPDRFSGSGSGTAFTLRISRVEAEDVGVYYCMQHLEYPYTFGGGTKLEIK ?
-53.5

// same read-out, input: AB13 (antibody, V domains shown, Hybridoma monoclonal; also called antibody 13; clone 13) VH: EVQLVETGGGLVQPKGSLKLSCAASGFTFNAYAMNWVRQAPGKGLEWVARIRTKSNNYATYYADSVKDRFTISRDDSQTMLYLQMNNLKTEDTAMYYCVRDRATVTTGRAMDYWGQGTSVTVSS VL: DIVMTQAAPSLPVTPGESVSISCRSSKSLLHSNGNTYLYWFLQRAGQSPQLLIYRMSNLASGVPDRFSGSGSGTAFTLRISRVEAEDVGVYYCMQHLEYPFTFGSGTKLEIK
-54.3

// same read-out, input: AB1 (antibody, V domains shown, Hybridoma monoclonal (mice or rats immunised); Used purified and PE-conjugated; also called antibody 1; clone 1) VH: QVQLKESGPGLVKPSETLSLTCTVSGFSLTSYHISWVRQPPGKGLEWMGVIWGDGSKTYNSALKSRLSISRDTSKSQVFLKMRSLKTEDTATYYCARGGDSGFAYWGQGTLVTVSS VL: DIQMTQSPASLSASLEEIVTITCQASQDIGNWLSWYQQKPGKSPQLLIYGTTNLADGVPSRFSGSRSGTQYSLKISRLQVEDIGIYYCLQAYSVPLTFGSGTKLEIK
46.8

// same read-out, input: AB8 (antibody, V domains shown, Hybridoma monoclonal; also called antibody 8; clone 8) VH: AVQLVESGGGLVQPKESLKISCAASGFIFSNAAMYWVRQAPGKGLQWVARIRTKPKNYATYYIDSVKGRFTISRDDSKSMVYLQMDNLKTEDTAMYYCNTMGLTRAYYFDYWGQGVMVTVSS VL: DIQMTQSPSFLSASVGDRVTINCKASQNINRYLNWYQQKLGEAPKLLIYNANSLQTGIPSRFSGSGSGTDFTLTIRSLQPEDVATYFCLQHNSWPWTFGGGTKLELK
-42.4

// same read-out, input: AB10 (antibody, V domains shown, Hybridoma monoclonal; also called antibody 10; clone 10) VH: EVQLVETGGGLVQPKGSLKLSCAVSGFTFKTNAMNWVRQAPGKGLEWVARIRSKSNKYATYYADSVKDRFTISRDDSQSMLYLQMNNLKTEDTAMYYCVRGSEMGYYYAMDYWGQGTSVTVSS VL: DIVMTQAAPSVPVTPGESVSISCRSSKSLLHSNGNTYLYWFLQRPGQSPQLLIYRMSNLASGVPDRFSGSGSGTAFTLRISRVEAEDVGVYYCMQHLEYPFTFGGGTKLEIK
-45.2
